# GI50 per entry
# Tested on: OVCAR-5
# METHOD NOTES: NCI tumour cell line growth inhibition, 48 h
Calls of active or inactive are those of the source. Cut-off read from the data, not from the text of the source: active = GI50 up to about 1.1 µM and inactive = higher. Non-standard residues stand in square brackets, D forms with d. Residues, ends and D or L forms follow the SMILES beside them. ξ: configuration not given here. Pen = CC(C)(S)[C@H](N)C(=O)O; ξL = CC(C)CC(N)C(=O)O

COc1cc(C(N)=O)cc(NC(=O)/C=C/c2ccccc2)c1OC :: > 100 µM (inactive)
O=C(c1ccc(Br)cc1)n1c2ccc(Br)cc2c2nc3ccccc3nc21 :: > 100 µM (inactive)
Cc1cc(NC(=O)C2C3C=CC(O3)C2C(=O)O)no1 (centres undefined) :: > 100 µM (inactive)
CCCCCCCCCCC(O)C1CCC(C(O)CCC(O)C2CCC(CCCCCCC[C@H](O)CC3=C[C@@H](C)OC3=O)O2)O1 (some centres undefined) :: > 100 µM (inactive)
CN(C)c1nc2n(CCO)c(-c3ccccc3)c(-c3ccccc3)nc-2c(=O)n1 :: > 100 µM (inactive)

Continue with the next compound.
Incoming: Item under review: CSCC[C@H](NC(=O)C(CC(C)C)NC(=O)[C@H](Cc1c[nH]cn1)NC(=O)CNC(=O)[C@@H](NC(=O)[C@@H](C)NC(=O)[C@H](Cc1c[nH]c2ccccc12)NC(=O)[C@H](CCC(N)=O)NC(=O)[C@@H](N)CC(N)=O)C(C)(C)SC)C(N)=O (some centres undefined) (H-NQW[dA][Pen](Me)GH[ξL]M-NH2) . Reported GI50?
Outgoing: > 100 µM (inactive)

----------
# Tested on: IGROV-1
# METHOD NOTES: NCI tumour cell line growth inhibition, 48 h
Calls of active or inactive are those of the source. Cut-off read from the data, not from the text of the source: active = GI50 up to about 1.1 µM and inactive = higher.
Write down one outcome, taken from True (active), False (inactive)

The examples below pair each entry with its known result.
CCOc1c2ccsc2c(OCC)c2ccsc12 :: False
O=C(O)c1ccc(C(=O)O)c2c(C(=O)O)ccc(C(=O)O)c12 :: False

Kindly review the next compound as well.
Incoming: Can you look up the reported call for CCN(CC)CCC1(C(=O)OC)SCCc2ccc(C)cc21 (stereo not drawn) for me?
Outgoing: False

----------
# Test system: NCI-H226
# METHOD NOTES: NCI tumour cell line growth inhibition, 48 h
Calls of active or inactive are those of the source. Cut-off read from the data, not from the text of the source: active = GI50 up to about 1.1 µM and inactive = higher.
MEASURED METRIC: GI50

Record excerpt, results attached:
O=C(c1ccc2ccccc2c1)N(Cc1cccnc1)C(=S)N(Cc1cccnc1)C(=O)c1ccc2ccccc2c1 :: 61.2 µM (inactive)
Cc1ccnc2nc3[nH]c4ccccc4c3cc12 :: > 100 µM (inactive)
CC1=NN(c2nc(N)nc(/C(C#N)=C/c3ccccc3O)n2)C(C)(C)C1 :: 17.3 µM (inactive)

Incoming: Item under review: `c1ccc([P+](c2ccccc2)(c2ccccc2)c2ccc(-c3ccc([P+](c4ccccc4)(c4ccccc4)c4ccccc4)cc3)cc2)cc1` . Reported GI50?
Outgoing: 30.8 µM (inactive)

Incoming: Then `Oc1nncc2[nH]c(-c3ccccc3)cc12` ?
Outgoing: 86.1 µM (inactive)

----------
# System: K562
# METHOD NOTES: NCI tumour cell line growth inhibition, 48 h
The source made the active and inactive calls. Rule as the data show it: active = GI50 up to about 1.1 µM and inactive = higher.
Write down one outcome, taken from t (active), f (inactive)

COC(=O)C1C(O)C(C)C(O)C(C)(O)/C=C\C=C(C)C(=O)Nc2c(C)c(OC(C)=O)c3c(c2O)C(=O)C(C)=C2OCOC(=C23)C(C)=CC(C)(O)C(O)C(C)C1OC(C)=O (stereo not drawn) :: f
Cc1cc(N2CCCC2)c([N+](=O)[O-])cc1[N+](=O)[O-] :: f
C=CC[C@H]1[C@@H](O[Si](C)(C)C(C)(C)C)[C@H](n2ccc(=O)[nH]c2=O)O[C@@H]1CO[Si](C)(C)C(C)(C)C :: f

Incoming: Can you look up the reported call for Cc1cn(CCCCCOC(=O)NC(CCCNC(=N)N)C(=O)O)c(=O)[nH]c1=O (stereo not drawn) for me?
Outgoing: f

Incoming: Then `CC1=NN(c2nc(N)nc(/C(C#N)=C/c3ccccc3O)n2)C(C)(C)C1` ?
Outgoing: f

Incoming: Then CC(=O)OCC1OC(Nc2ncc(-c3ccc(C)cc3)s2)C(OC(C)=O)C(OC(C)=O)C1OC(C)=O (stereo not drawn) ?
Outgoing: f

Incoming: Then CC(C)C(Cl)CCC(C)(Cl)C(=O)CBr (stereo not drawn) ?
Outgoing: t

----------
# Tested on: T47D
# METHOD NOTES: NCI tumour cell line growth inhibition, 48 h
Activity calls are given as the source filed them. Cut-off read from the data, not from the text of the source: active = GI50 up to about 1.1 µM and inactive = higher.
Write down one outcome, taken from Yes for active, No for inactive

COc1ccc2nc3ccc(OC)cc3c(SCCO)c2c1 :: No

Incoming: Can you look up the reported call for `COc1cc(/C=N/NC(=O)c2c(Cl)c(Cl)c(Cl)c(Cl)c2-c2nc3ccccc3[nH]2)ccc1O` for me?
Outgoing: Yes

----------
# System: XF498
# METHOD NOTES: NCI tumour cell line growth inhibition, 48 h
The source made the active and inactive calls. Rule as the data show it: active = GI50 up to about 1.1 µM and inactive = higher.
Write down one outcome, taken from yes (active), no (inactive)

Incoming: Can you look up the reported call for COC(=O)C(/C(=N/NC(N)=S)C(=O)Nc1ccccc1[N+](=O)[O-])c1cnc2ccccc2n1 (centres undefined) for me?
Outgoing: no

Incoming: Then C[n+]1ccc(-c2cc[n+](C)cc2)cc1 [PARAQUAT DICHLORIDE] ?
Outgoing: no

----------
# System: NCI-H226
# METHOD NOTES: NCI tumour cell line growth inhibition, 48 h
Activity calls are given as the source filed them. No stated cut-off is given here; in the data, active = GI50 up to about 1.1 µM and inactive = higher.
MEASURED METRIC: GI50

Record excerpt, results attached:
CC(=O)NNc1nc(C)c(C(=O)NNC(=O)C(=O)Nc2c([N+](=O)[O-])ccc(C)c2C)s1 :: > 100 µM (inactive)
CCCCCCCCCCC(O)C1CCC(C(O)CCC(O)C2CCC(CCCCCCC[C@H](O)CC3=C[C@@H](C)OC3=O)O2)O1 (some centres undefined) :: 2.64 µM (inactive)
O=C(O)c1cc(O)c2c(c1)C([C@@H]1c3cccc(O)c3C(=O)c3c(O)cc(C(=O)O)cc31)c1cccc(O)c1C2=O (some centres undefined) :: 33.7 µM (inactive)

Continue with the next compound.
Incoming: Item under review: `FC(F)(F)C1(C(F)(F)F)O[Si]2(OC(C(F)(F)F)(C(F)(F)F)c3ccccc32)c2ccccc21` . Reported GI50?
Outgoing: 4.53 µM (inactive)

----------
# System: CCRF-CEM
# METHOD NOTES: NCI tumour cell line growth inhibition, 48 h
Calls of active or inactive are those of the source. Rule as the data show it: active = GI50 up to about 1.1 µM and inactive = higher.
MEASURED METRIC: GI50

Record excerpt, results attached:
CCCCCCCCCCCCCC(=O)OCC(CCS(=O)(=O)O[C@H]1CC[C@@]2(C)C(=CC[C@@H]3C2CC[C@]2(C)C(=O)CCC32)C1)OC(=O)CCCCCCCCCCCCC (stereo not given in full) :: > 100 µM (inactive)
NCCCC(N)(C(=O)O)C(F)F (stereo not given) :: > 1580 µM (inactive)

Continue with the next molecule.
Incoming: Item under review: `CC1CCN(c2nnc(Cl)cc2C(=O)c2ccccc2)CC1` . Reported GI50?
Outgoing: 13.5 µM (inactive)

----------
# Test system: MCF7
# METHOD NOTES: NCI tumour cell line growth inhibition, 48 h
Activity calls are given as the source filed them. Rule as the data show it: active = GI50 up to about 1.1 µM and inactive = higher. Where a SMILES comes first, the peptide text is derived from it. [ ]: non-standard residue; d: D form. Phe(F5) = N[CH](Cc1c(F)c(F)c(F)c(F)c1F)C(=O)O
MEASURED METRIC: GI50

O=C1CSC2=NC3=C(CSC/C3=C\c3ccc(Cl)cc3)C(c3ccc(Cl)cc3)N12 (stereo not drawn) :: 19.3 µM (inactive)
COC(=O)C(CC(C)C)NC(=O)C(Cc1c[nH]cn1)NC(=O)CNC(=O)C(NC(=O)C(C)NC(=O)C(Cc1c[nH]c2ccccc12)NC(=O)C(CCC(=O)O)NC(=O)C(N)Cc1c(F)c(F)c(F)c(F)c1F)C(C)C (stereo not drawn) (H-[Phe(F5)]EWAVGHL-OMe; configuration not given here) :: > 12.5 µM (inactive)

Continue with the next molecule.
Incoming: Item under review: CC(C)C(Cl)CCC(C)(Cl)C(=O)CBr (stereo not drawn) . Reported GI50?
Outgoing: 2.37 µM (inactive)

----------
# Tested on: HOP-92
# METHOD NOTES: NCI tumour cell line growth inhibition, 48 h
Active and inactive are the calls of the source. Rule as the data show it: active = GI50 up to about 1.1 µM and inactive = higher.
# GI50 per entry

O/N=C1\CCc2cc3c(cc21)CCC3 :: 55.7 µM (inactive)
COc1ccc(/N=N/c2c(-c3ccccc3)nn(C(=O)CC(=O)Nc3ccccc3Cl)c2-c2ccccc2)cc1 :: 20.6 µM (inactive)

Incoming: Reported GI50 for HOP-92, given `Cc1ccc(S(=O)(=O)NC(=O)OC23COCN2COC3)cc1` ?
Outgoing: > 100 µM (inactive)

Incoming: Then CSCC1CC(c2ccc(Cl)cc2)=NO1 (stereo unspecified) ?
Outgoing: > 100 µM (inactive)

Incoming: Then `O=C(OCc1ccccc1)OOC(=O)OCc1ccccc1` ?
Outgoing: > 100 µM (inactive)

Incoming: Then `CC1=C[C@@H](C)C[C@]2(C)CC[C@H](O2)[C@]23CC[C@](C(=O)O)(C[C@H](O2)[C@@H]2O[C@@](C)(CC2=O)[C@@H](O)[C@H]2CC[C@@]4(CCC[C@@H](O4)[C@H](C)C(=O)O[C@H]4C[C@H]([C@]5(O)OCC[C@H](C)[C@@H]5O)O[C@H]4C=C1)O2)O3` ?
Outgoing: > 3.92 µM (inactive)
